tested on: freshly isolated dendritic cells (CD11c+ splenocytes); experiment: Dendritic cell (DC) assay: IL-12 release; format: cell-based, BALB/c mice; conditions: tested for synergism and inhibition
attribute measured: DC/mIL12 Release

| molecule | observed measurement |
| --- | --- |
| IL-18: interleukin (protein, UniProt P70380 36-192, looked up) Interleukin-18: NFGRLHCTTAVIRNINDQVLFVDKRQPVFEDMTDIDQSASEPQTRLIIYMYKDSEVRGLAVTLSVKDSKMSTLSCKNKIISFEEMDPPENIDDIQSDLIFFQKRVPGHNKMEFESSLYEGHFLACQKEDDAFKLILKKKDENGDKSVMFTLTNLHQS | − |
| IL-2: Interleukin 2 (protein, UniProt P04351 21-169, looked up) Interleukin-2: APTSSSTSSSTAEAQQQQQQQQQQQQHLEQLLMDLQELLSRMENYRNLKLPRMLTFKFYLPKQATELKDLQCLEDELGPLRHVLDLTQSKSFQLEDAENFISNIRVTVVKLKGSDNTFECQFDDESATVVDFLRRWIAFCQSIISTSPQ | − |
